Molecular target: PPARγ ligand binding domain / PGC-1 (Homo sapiens)
Sequence (P37231 238-503 limits assumed): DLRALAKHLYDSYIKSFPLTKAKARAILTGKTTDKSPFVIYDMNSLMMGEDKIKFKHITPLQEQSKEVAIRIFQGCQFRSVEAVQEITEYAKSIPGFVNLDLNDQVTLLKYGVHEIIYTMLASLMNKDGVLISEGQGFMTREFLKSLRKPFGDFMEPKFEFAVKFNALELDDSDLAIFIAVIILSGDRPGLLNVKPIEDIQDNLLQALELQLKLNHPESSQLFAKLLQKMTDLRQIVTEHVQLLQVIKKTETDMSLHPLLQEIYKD
Sequence (Q9UBK2 1-798 partner): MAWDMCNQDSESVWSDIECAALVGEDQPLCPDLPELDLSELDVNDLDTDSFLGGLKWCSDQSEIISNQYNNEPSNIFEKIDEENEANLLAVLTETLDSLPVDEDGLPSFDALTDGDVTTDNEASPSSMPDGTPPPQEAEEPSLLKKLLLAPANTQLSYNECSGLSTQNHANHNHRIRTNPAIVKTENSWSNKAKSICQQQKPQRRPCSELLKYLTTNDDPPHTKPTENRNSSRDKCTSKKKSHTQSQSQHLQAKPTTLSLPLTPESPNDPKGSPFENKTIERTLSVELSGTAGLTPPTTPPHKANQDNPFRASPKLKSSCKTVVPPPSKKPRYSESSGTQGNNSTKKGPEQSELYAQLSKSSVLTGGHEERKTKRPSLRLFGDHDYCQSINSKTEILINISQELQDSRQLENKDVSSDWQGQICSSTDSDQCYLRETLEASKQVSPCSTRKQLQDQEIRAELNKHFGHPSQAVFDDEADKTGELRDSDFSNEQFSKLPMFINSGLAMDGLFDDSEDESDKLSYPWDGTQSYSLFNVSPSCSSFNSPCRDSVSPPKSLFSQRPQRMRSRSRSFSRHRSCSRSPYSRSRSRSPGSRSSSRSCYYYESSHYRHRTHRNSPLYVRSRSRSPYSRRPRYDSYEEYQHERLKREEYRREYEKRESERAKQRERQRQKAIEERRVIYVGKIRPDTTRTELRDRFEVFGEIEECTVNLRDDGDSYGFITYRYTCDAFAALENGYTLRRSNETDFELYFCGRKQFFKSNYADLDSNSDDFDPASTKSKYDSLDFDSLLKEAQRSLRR
Assay: Co-factor recruitment assay (mammalian-2-hybrid, CV-1 cells), PGC-1
Conditions: read-out: PGC1 EC50
EXPERIMENTAL ENDPOINT: pEC50
Remember, pEC50 is on a log scale: it is -log10 of the molar concentration.

>>> measured_value("CCOc1ccc(CCNC(=O)COc2ccc(C[C@H](OC)C(=O)O)cc2)cc1")
5.59

Then this molecule:
Measured pEC50, COc1ccc(CCNC(=O)COc2ccc(C[C@H](OC)C(=O)O)cc2)cc1 : 5.69
